TGT: T1, human neurotensin receptor type 2 (hNTS2R) in homogenates of HEK293T cells (human, UniProt O95665 1-410)
T1 construct: human neurotensin receptor type 2 (hNTS2R); also called HEK293T-hNTS2R cells; source: HEK293T, transiently transfected, homogenates
ASSAY COMMENT: radioligand binding; competition with [^3H]UR-MK300 at homogenates of HEK293T cells transiently transfected with hNTS2R; Tris buffer (50 mM Tris HCl, 1 mM EDTA, pH 7.4) with 0.1% BSA
TEST SETTINGS: one partner purified
QUANTITY KIND: Ki (nM)
Return type: number; implicit unit nM.

Entry XPRRPYIL (N-terminus: 5-TAMRA attached through a 3-(1H-1,2,3-triazol-4-yl)propanoyl group; position 6 (X) = 2-(piperidin-4-yl)-Gly (pipGly); Arg8 = N^ω-[(4-(N-propanoyl)aminobutyl)aminocarbonyl]Arg) [5-TAMRA-labeled, propionylated NT(6–13) derivative 13 (UR-FE051)] ; Ki = 2.4
